# IC50 per entry
tested_on: Endothelin-1 receptor (Homo sapiens, UniProt P25101)
Sequence (P25101 whole entry): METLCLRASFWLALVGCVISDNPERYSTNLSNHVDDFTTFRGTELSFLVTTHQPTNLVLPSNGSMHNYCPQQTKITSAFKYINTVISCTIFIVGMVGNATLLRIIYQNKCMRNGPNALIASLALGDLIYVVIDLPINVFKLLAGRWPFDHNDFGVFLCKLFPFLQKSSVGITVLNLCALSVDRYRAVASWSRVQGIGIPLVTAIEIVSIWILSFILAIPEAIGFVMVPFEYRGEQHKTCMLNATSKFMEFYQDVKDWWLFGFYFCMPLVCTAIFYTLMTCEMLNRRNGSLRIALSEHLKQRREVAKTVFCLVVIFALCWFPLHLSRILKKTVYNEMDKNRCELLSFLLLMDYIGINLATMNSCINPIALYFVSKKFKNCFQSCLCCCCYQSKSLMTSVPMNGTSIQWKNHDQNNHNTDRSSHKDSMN
protocol_notes: Inhibition of human endothelin A (ETA) receptor expressed in CHO cells
measurement_name: IC50 (nM)

compound	tested_on	measurement_name	readout_units	quantitative_result
CCCc1cc(Cn2c(CC)nc3c(C)cc(C)nc32)ccc1OC(C(=O)NS(=O)(=O)c1ccc(CC(C)C)s1)c1ccc2c(c1)OCO2 (configuration not stated)	Endothelin-1 receptor (Homo sapiens, UniProt P25101)	IC50	nM	75
CCCc1cc(Cn2c(CC)nc3c(C)cc(C)nc32)cc(CCC)c1OC(C(=O)O)c1ccc2c(c1)OCO2 (configuration not stated)	Endothelin-1 receptor (Homo sapiens, UniProt P25101)	IC50	nM	38
CCCc1cc(Cn2c(CC)nc3c(C)cc(C)nc32)cc(CCC)c1OC(C(=O)NS(=O)(=O)c1ccc(C(C)C)cc1)c1ccc2c(c1)OCO2 (configuration not stated)	Endothelin-1 receptor (Homo sapiens, UniProt P25101)	IC50	nM	330
CCCc1cc(Cn2c(CC)nc3c(C)cc(C)nc32)ccc1OC(C(=O)O)c1ccc2c(c1)OCO2 (configuration not stated)	Endothelin-1 receptor (Homo sapiens, UniProt P25101)	IC50	nM	840
CCCc1cc(Cn2c(CC)nc3c(C)cc(C)nc32)ccc1OC(C(=O)O)c1ccccc1 (configuration not stated)	Endothelin-1 receptor (Homo sapiens, UniProt P25101)	IC50	nM	11000
CCCc1cc(Cn2c(CC)nc3c(C)cc(C)nc32)cc(CCC)c1OC(C(=O)NS(C)(=O)=O)c1ccc2c(c1)OCO2 (configuration not stated)	Endothelin-1 receptor (Homo sapiens, UniProt P25101)	IC50	nM	500
CCCc1cc(Cn2c(CC)nc3c(C)cc(C)nc32)cc(CCC)c1OC(C(=O)NS(=O)(=O)C(C)C)c1ccc2c(c1)OCO2 (configuration not stated)	Endothelin-1 receptor (Homo sapiens, UniProt P25101)	IC50	nM	700
CCCc1cc(Cn2c(CC)nc3c(C)cc(C)nc32)cc(CCC)c1OC(C(=O)NS(=O)(=O)c1cccs1)c1ccc2c(c1)OCO2 (configuration not stated)	Endothelin-1 receptor (Homo sapiens, UniProt P25101)	IC50	nM	820
CCCc1cc(Cn2c(CC)nc3c(C)cc(C)nc32)ccc1OC(C(=O)NS(=O)(=O)c1ccc(C(C)C)cc1)c1ccc2c(c1)OCO2 (configuration not stated)	Endothelin-1 receptor (Homo sapiens, UniProt P25101)	IC50	nM	24
CCCc1cc(Cn2c(CC)nc3c(C)cc(C)nc32)cc(CCC)c1OC(C(=O)NS(=O)(=O)c1ccc(CC(C)C)s1)c1ccc2c(c1)OCO2 (configuration not stated)	Endothelin-1 receptor (Homo sapiens, UniProt P25101)	IC50	nM	600
CCCc1cc(Cn2c(CC)nc3c(C)cc(C)nc32)cc(CCC)c1OC(C(=O)O)c1cc(Br)c(OC)c(OC)c1Br (configuration not stated)	Endothelin-1 receptor (Homo sapiens, UniProt P25101)	IC50	nM	11000
CCCc1cc(Cn2c(CC)nc3c(C)cc(C)nc32)cc(CCC)c1OC(C(=O)NS(=O)(=O)c1ccccc1)c1ccc2c(c1)OCO2 (configuration not stated)	Endothelin-1 receptor (Homo sapiens, UniProt P25101)	IC50	nM	1600
